Sourced from the supplement of paper PMC10307832

System: NCI-H661
Experiment: relative viability (nuclei count vs DMSO), 5 days (fraction); higher = more cells survive
Settings: first compound 0.5 µM

- MOLECULE: "CC1(C)CCC(c2ccc(Cl)cc2)=C(CN2CCN(c3ccc(C(=O)NS(=O)(=O)c4ccc(N[C@H](CCN5CCOCC5)CSc5ccccc5)c(S(=O)(=O)C(F)(F)F)c4)cc3)CC2)C1 [Navitoclax] + O=C(CCCCCCC(=O)Nc1ccccc1)NO [Vorinostat] (partner 1 µM)"
  relative viability: 0.772
- MOLECULE: "CC1(C)CCC(c2ccc(Cl)cc2)=C(CN2CCN(c3ccc(C(=O)NS(=O)(=O)c4ccc(N[C@H](CCN5CCOCC5)CSc5ccccc5)c(S(=O)(=O)C(F)(F)F)c4)cc3)CC2)C1 [Navitoclax] + N=C(N)NC(=N)NCCc1ccccc1 [Phenformin] (partner 250 µM)"
  relative viability: 0.258

====

# reported relative viability; entries follow
Test system: LXF-289
Experiment: relative viability (nuclei count vs DMSO), 5 days (fraction); higher = more cells survive
Conditions: first compound 0.1265 µM

- MOLECULE: "O=C(O)c1ccc(-c2c[nH]c3ncc(-c4ccccc4)cc23)cc1C1CCCC1 + COc1cccc2cc(-c3nc([C@H]4CC[C@H](C(=O)O)CC4)n4ncnc(N)c34)[nH]c12 [OSI-027] (partner 0.5 µM)"
  relative viability: 0.879
- MOLECULE: "O=C(O)c1ccc(-c2c[nH]c3ncc(-c4ccccc4)cc23)cc1C1CCCC1 + O=C(CCCCCCC(=O)Nc1ccccc1)NO [Vorinostat] (partner 1 µM)"
  relative viability: 0.773
- MOLECULE: "O=C(O)c1ccc(-c2c[nH]c3ncc(-c4ccccc4)cc23)cc1C1CCCC1 + CCNC(=O)c1noc(-c2cc(C(C)C)c(O)cc2O)c1-c1ccc(CN2CCOCC2)cc1 [Luminespib] (partner 0.01 µM)"
  relative viability: 0.614
- MOLECULE: "O=C(O)c1ccc(-c2c[nH]c3ncc(-c4ccccc4)cc23)cc1C1CCCC1 + CC(=O)c1c(C)c2cnc(Nc3ccc(N4CCNCC4)cn3)nc2n(C2CCCC2)c1=O [Palbociclib] (partner 0.5 µM)"
  relative viability: 0.584

====

System: NCI-H727
Test: relative viability (nuclei count vs DMSO), 5 days (fraction); higher = more cells survive
Details: first compound 0.5 µM
Here, each record is paired with measured relative viability data.

- MOLECULE: "CC1(C)CCC(c2ccc(Cl)cc2)=C(CN2CCN(c3ccc(C(=O)NS(=O)(=O)c4ccc(N[C@H](CCN5CCOCC5)CSc5ccccc5)c(S(=O)(=O)C(F)(F)F)c4)cc3)CC2)C1 [Navitoclax] + Cc1cc(Nc2cc(N3CCN(C)CC3)nc(Sc3ccc(NC(=O)C4CC4)cc3)n2)n[nH]1 [Tozasertib] (partner 0.1 µM)"
  relative viability: 0.646
- MOLECULE: "CC1(C)CCC(c2ccc(Cl)cc2)=C(CN2CCN(c3ccc(C(=O)NS(=O)(=O)c4ccc(N[C@H](CCN5CCOCC5)CSc5ccccc5)c(S(=O)(=O)C(F)(F)F)c4)cc3)CC2)C1 [Navitoclax] + C[C@]1(O)C[C@@H](c2nc(-c3ccc4ccc(-c5ccccc5)nc4c3)c3c(N)nccn32)C1 [Linsitinib] (partner 1 µM)"
  relative viability: 0.162

====

Tested on: NCI-H2009
Experiment: relative viability (nuclei count vs DMSO), 5 days (fraction); higher = more cells survive
Conditions: first compound 0.1265 µM
Note to self: use yes only for relative viability readings below 0.9; a reading exactly at 0.9 still gets no.

- MOLECULE: "O=C(O)c1ccc(-c2c[nH]c3ncc(-c4ccccc4)cc23)cc1C1CCCC1 + Nc1nc2[nH]cc(CCc3ccc(C(=O)N[C@@H](CCC(=O)O)C(=O)O)cc3)c2c(=O)[nH]1 [Pemetrexed] (partner 0.2 µM)"
  LABEL_CLASS: "no"
- MOLECULE: "O=C(O)c1ccc(-c2c[nH]c3ncc(-c4ccccc4)cc23)cc1C1CCCC1 + CC(C)C[C@H](NC(=O)[C@H](Cc1ccccc1)NC(=O)c1cnccn1)B(O)O [Bortezomib] (partner 0.002 µM)"
  LABEL_CLASS: "no"
- MOLECULE: "O=C(O)c1ccc(-c2c[nH]c3ncc(-c4ccccc4)cc23)cc1C1CCCC1 + CC(=O)c1c(C)c2cnc(Nc3ccc(N4CCNCC4)cn3)nc2n(C2CCCC2)c1=O [Palbociclib] (partner 0.5 µM)"
  LABEL_CLASS: "yes"
- MOLECULE: "O=C(O)c1ccc(-c2c[nH]c3ncc(-c4ccccc4)cc23)cc1C1CCCC1 + N=C(N)NC(=N)NCCc1ccccc1 [Phenformin] (partner 250 µM)"
  LABEL_CLASS: "yes"
